Target Of Assay: T1, VLP-hCLDN6 (human) (UniProt P56747)
T1 sequence: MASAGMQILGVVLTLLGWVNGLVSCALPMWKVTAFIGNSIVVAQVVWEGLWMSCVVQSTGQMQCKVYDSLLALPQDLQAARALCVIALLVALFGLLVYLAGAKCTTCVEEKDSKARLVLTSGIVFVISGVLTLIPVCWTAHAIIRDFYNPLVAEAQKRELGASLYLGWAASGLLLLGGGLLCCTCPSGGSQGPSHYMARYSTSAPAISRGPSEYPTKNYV
Experimental Details: ELISA, coated VLP-hCLDN6, 100 ul antibody sample (second well), HRP-Protein A

[
  {
    "Binder": "humanized antibody hAb-19 (antibody, V domains shown) VH: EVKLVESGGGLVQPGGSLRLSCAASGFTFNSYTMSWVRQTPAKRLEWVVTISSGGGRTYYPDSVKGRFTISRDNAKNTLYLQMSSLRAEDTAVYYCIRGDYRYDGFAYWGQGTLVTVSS VL: DIQMTQSPSSLSASVGDRVTITCRASENIDSYLAWYQQKPGKSPQLLVYASTLLQDGVPSRFSGSRSGTQFTLTISSLQPEDVARYYCQHYYSIPYTFGSGTKLEIK",
    "OD450": 1.79
  }
]
